target: human mGluR5 (Homo sapiens); construct: expressed in transfected cells; host or cells: HEK293 cells stably expressing rat GLAST (EAAT1), stably transfected with pcDNAzeo3.1 carrying synthetic human mGluR5 DNA; zeocin-selected single clones; experiment: In vitro cell-based FLIPR calcium assay for positive modulation of the activation of mGluR5 by glutamate (PAM EC50); conditions: HEK293/GLAST cells expressing recombinant human mGluR5; FLIPR calcium signal; glutamate added at its EC20; read-out: mGluR5 PAM EC50
Recorded Endpoint: EC50

Use these answered entries as a reference point.
>>> measurement("CC1CCc2nc3cc(C#Cc4ccccn4)cnc3c(=O)n2CC1 (single isomer, unassigned) [11.9a/11.9b slower moving enantiomer (fraction 2)]")
"10 to 30 nM"
>>> measurement("CC1(C)CCn2c(nc3cc(/C=C/c4cccc(C#N)n4)ccc3c2=O)C1 [Example 20.9]")
"100 to 300 nM"

Tell me the measured EC50 of O=c1c2ccc(C#Cc3ccccn3)cc2nc2n1CCC1(CC2)CC1 [Example 6.51] , please.
< 10 nM

Request: N#Cc1cc(C#Cc2ccc3c(=O)n4c(nc3c2)CCC2(CC4)OCCO2)ccc1F [Example 7.19]
300 to 1000 nM

Request: CC1CCCc2nc3cc(C#Cc4cccc(F)c4)ccc3c(=O)n21 (centres unmarked) [Example 4.17]
10 to 30 nM

Request: CCN1CCc2nc3cc(C#Cc4ccc(F)cc4)ccc3c(=O)n2CC1 [Example 8.2]
100 to 300 nM

Request: O=c1c2ccc(C#Cc3ccsc3)cc2nc2n1CCC1(CC2)OCCO1 [Example 7.59]
10 to 30 nM

Request: O=c1c2ccc(C#Cc3ccccn3)cc2nc2n1C[C@@H]1CCCN1C2 [Example 5.23]
30 to 100 nM

---

target: human mGluR5 (Homo sapiens, UniProt P41594); construct: expressed in transfected cells; host or cells: HEK293 cells stably expressing rat GLAST (EAAT1), stably transfected with pcDNAzeo3.1 carrying synthetic human mGluR5 DNA; zeocin-selected single clones; assay: In vitro cell-based FLIPR calcium assay for positive modulation of the activation of mGluR5 by glutamate (PAM EC50); conditions: HEK293/GLAST cells expressing recombinant human mGluR5; FLIPR calcium signal; glutamate added at its EC20; read-out: mGluR5 PAM EC50
Sequence (P41594 21-1212): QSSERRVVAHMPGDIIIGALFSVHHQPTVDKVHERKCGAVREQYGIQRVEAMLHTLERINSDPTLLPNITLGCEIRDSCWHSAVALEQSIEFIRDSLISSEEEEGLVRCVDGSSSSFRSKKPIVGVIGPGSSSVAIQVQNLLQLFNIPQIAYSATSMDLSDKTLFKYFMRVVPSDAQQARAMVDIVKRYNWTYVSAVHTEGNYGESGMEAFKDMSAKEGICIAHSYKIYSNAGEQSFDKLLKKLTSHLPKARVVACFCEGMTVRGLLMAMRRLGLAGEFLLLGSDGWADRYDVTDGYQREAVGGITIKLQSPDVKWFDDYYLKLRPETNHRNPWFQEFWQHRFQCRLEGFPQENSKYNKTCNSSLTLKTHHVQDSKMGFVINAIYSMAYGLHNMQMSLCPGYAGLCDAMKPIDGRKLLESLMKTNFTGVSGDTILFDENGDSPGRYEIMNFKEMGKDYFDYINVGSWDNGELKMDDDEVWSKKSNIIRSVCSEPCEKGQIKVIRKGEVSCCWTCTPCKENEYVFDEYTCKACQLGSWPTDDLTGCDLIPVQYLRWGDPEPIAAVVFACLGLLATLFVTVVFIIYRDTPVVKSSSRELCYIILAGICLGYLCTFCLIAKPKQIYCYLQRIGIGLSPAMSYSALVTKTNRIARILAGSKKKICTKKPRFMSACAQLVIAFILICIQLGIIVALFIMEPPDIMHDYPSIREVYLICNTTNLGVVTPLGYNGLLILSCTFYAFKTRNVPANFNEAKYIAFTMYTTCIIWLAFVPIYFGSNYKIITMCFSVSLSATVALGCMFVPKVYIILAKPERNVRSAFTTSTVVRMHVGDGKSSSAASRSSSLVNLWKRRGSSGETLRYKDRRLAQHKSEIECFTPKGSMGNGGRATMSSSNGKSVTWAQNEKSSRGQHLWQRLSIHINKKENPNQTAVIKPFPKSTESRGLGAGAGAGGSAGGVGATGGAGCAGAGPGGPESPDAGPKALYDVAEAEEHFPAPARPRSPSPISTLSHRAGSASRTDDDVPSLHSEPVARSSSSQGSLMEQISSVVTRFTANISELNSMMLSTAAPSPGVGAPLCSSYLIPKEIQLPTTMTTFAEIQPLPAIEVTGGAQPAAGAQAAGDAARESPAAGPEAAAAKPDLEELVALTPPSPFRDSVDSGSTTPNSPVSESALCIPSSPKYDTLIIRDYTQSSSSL
Recorded Endpoint: EC50

>>> measurement("O=c1c2ccc(C#Cc3cccc(F)c3)cc2nc2n1CC(Cc1ccccc1)C2 (stereo not drawn)")
"< 10 nM"
>>> measurement("CCCC1CCc2nc3cc(C#Cc4ccc(F)cc4)ccc3c(=O)n2CC1 (stereo not drawn)")
"30 to 100 nM"
>>> measurement("CC(C)CC1Cc2nc3cc(C#Cc4cccc(F)c4)ccc3c(=O)n2C1 (stereo not drawn)")
"10 to 30 nM"
>>> measurement("CC(C#N)N1CCc2nc3cc(C#Cc4ccccn4)ccc3c(=O)n2CC1 (stereo not drawn)")
"300 to 1000 nM"
>>> measurement("O=c1c2c(nc3cc(C#Cc4ccccn4)ccn13)CCCC2")
"30 to 100 nM"
>>> measurement("COCC1CCc2nc3cc(C#Cc4cccc(F)c4)ccc3c(=O)n21 (stereo not drawn)")
"< 10 nM"
>>> measurement("O=c1c2ccc(C#Cc3ccc(F)cc3)cc2ncn1CC1CCCO1 (stereo not drawn) [Example 1.13]")
"30 to 100 nM"
>>> measurement("O=c1c2ccc(C#Cc3ccc(F)cc3)cc2nc2n1CCC1(CC2)OCCO1")
"30 to 100 nM"
>>> measurement("O=c1c2ccc(C#Cc3cccc(F)c3)cc2nc2n1CCC(O)CC2 (stereo not drawn)")
"< 10 nM"
>>> measurement("O=c1c2ccc(C#Cc3ccccn3)cc2nc2n1CCC1(CCCO1)CC2 (stereo not drawn)")
"30 to 100 nM"

Tell me the measured EC50 of CC1CCc2nc3cc(C#Cc4ccccn4)ccc3c(=O)n2CC1 (stereo not drawn) [Example 6.9] , please.
< 10 nM

Request: COC1(C)CCc2nc3cc(C#Cc4ccccn4)ccc3c(=O)n2CC1 (single isomer, unassigned) [Example 6.50a/6.50b slower moving enantiomer (fraction 2)]
10 to 30 nM

Request: Cc1ccsc1C#Cc1ccc2c(=O)n3c(nc2c1)CCC1(CC3)OCCO1
300 to 1000 nM

Request: Cc1csc(C#Cc2ccc3c(=O)n4c(nc3c2)CCC2(CC4)OCCO2)n1
30 to 100 nM

Request: CC1(C)Cn2c(nc3cc(C#Cc4ccccn4)ccc3c2=O)CN1
100 to 300 nM

Request: N#CC1CCc2nc3cc(C#Cc4ccccn4)ccc3c(=O)n2CC1 (stereo not drawn)
100 to 300 nM

Request: O=c1c2ccc(C#Cc3cccc(F)c3)cc2nc2n1C(CO)CC2 (stereo not drawn)
30 to 100 nM

Request: O=c1c2c(nc3cc(C#Cc4ccccc4)ccn13)CCCCC2
< 10 nM

---

Below, each entry is listed alongside its reported pEC50.
molecular target: human mGluR5 (Homo sapiens); construct: expressed in transfected cells; host or cells: HEK293 cells stably expressing rat GLAST (EAAT1), stably transfected with pcDNAzeo3.1 carrying synthetic human mGluR5 DNA; zeocin-selected single clones; experiment: In vitro cell-based FLIPR calcium assay for positive modulation of the activation of mGluR5 by glutamate (PAM EC50); conditions: HEK293/GLAST cells expressing recombinant human mGluR5; FLIPR calcium signal; glutamate added at its EC20; read-out: mGluR5 PAM EC50
pEC50: −log10 of the molar value.

>>> measurement("O=c1c2ccc(C#Cc3ccccn3)cc2nc2n1CC(F)(F)CC2")
"7.52 to 8.00"
>>> measurement("CC1CCc2c(nc3cc(C#Cc4ccccn4)ccn3c2=O)C1 (centres unmarked)")
"> 8.00"
>>> measurement("CC(c1nc2cc(C#Cc3ccccn3)ccc2c(=O)n1C)N(C)C (centres unmarked)")
"6.52 to 7.00"
>>> measurement("Cn1cnc2cc(C#Cc3ccccc3)ccc2c1=O")
"6.52 to 7.00"

Okay, now this compound:
Tell me the measured pEC50 of N#Cc1cccc(C#Cc2ccc3c(=O)n4c(nc3c2)CCCCC4)n1 , please.
7.52 to 8.00

---

target: human mGluR5 (Homo sapiens, UniProt P41594); construct: expressed in transfected cells; host or cells: HEK293 cells stably expressing rat GLAST (EAAT1), stably transfected with pcDNAzeo3.1 carrying synthetic human mGluR5 DNA; zeocin-selected single clones; assay: In vitro cell-based FLIPR calcium assay for positive modulation of the activation of mGluR5 by glutamate (PAM EC50); details: HEK293/GLAST cells expressing recombinant human mGluR5; FLIPR calcium signal; glutamate added at its EC20; read-out: mGluR5 PAM EC50
pEC50: −log10 of the molar value.
Below, each entry is listed alongside its reported pEC50.

Use these answered entries as a reference point.
>>> measurement("CN1CCn2c(nc3cc(C#Cc4ccc(F)cc4)ccc3c2=O)C1 [Example 5.3]")
"7.52 to 8.00"
>>> measurement("O=c1c2ccc(C#Cc3ccc(F)cc3)cc2ncn1CC1CCCO1 (single isomer, unassigned) [1.15/1.16 slower moving enantiomer (fraction 2)]")
"6.52 to 7.00"
>>> measurement("CN1CCn2c(nc3cc(C#Cc4ccccn4)ccc3c2=O)C1 [Example 5.5]")
"6.52 to 7.00"
>>> measurement("O=c1c2ccc(C#Cc3cccc(Cl)c3)cc2nc2n1CCC1(CC2)OCCO1 [Example 7.8]")
"6.00 to 6.52"
>>> measurement("COCCn1cnc2cc(C#Cc3ccc(F)cc3)ccc2c1=O [Example 1.12]")
"7.00 to 7.52"
>>> measurement("CC1(C)CCn2c(nc3cc(/C=C/c4ccccn4)ccc3c2=O)C1 [Example 20.7]")
"7.52 to 8.00"
>>> measurement("COCCc1nc2cc(C#Cc3cccc(F)c3)ccc2c(=O)[nH]1 [Example 2.13]")
"6.52 to 7.00"

Tell me the measured pEC50 of CC1(C)Cn2c(nc3cc(C#Cc4ccccn4)ccc3c2=O)CO1 [Example 4.40] , please.
7.52 to 8.00

---

target: human mGluR5 (Homo sapiens); construct: expressed in transfected cells; host or cells: HEK293 cells stably expressing rat GLAST (EAAT1), stably transfected with pcDNAzeo3.1 carrying synthetic human mGluR5 DNA; zeocin-selected single clones; test: In vitro cell-based FLIPR calcium assay for positive modulation of the activation of mGluR5 by glutamate (PAM EC50); conditions: HEK293/GLAST cells expressing recombinant human mGluR5; FLIPR calcium signal; glutamate added at its EC20; read-out: mGluR5 PAM EC50
Below, each entry is listed alongside its reported EC50.

Use these answered entries as a reference point.
>>> measurement("O=c1c2ccc(C#Cc3cccc(F)c3)cc2nc2n1CC/C(=N\\O)CC2 [Example 6.23]")
"0.03 to 0.1 µM"
>>> measurement("CC1CCc2nc3cc(C#Cc4ccccn4)ccn3c(=O)c2CC1 (stereo not drawn) [Example 16.6]")
"< 0.01 µM"
>>> measurement("O=c1c2ccc(C#Cc3cccc(F)c3)cc2nc2n1CCOC2 [Example 4.1]")
"< 0.01 µM"

Tell me the measured EC50 of O=C(Nc1ccc2c(=O)n3c(nc2c1)CCCCCC3)c1ccc(F)cc1 [Example 24.1] , please.
0.3 to 1 µM

Request: O=c1c2ccc(C#Cc3cccc(F)c3)cc2ncn1CC1CC1 [Example 1.8]
0.03 to 0.1 µM

Request: CC1CCCCn2c1nc1cc(C#Cc3ccccn3)ccc1c2=O (stereo not drawn) [Example 6.35]
0.01 to 0.03 µM

Request: CN1CCCC1c1nc2cc(C#Cc3cccc(F)c3)ccc2c(=O)n1C (stereo not drawn) [Example 2.4]
0.1 to 0.3 µM

Request: O=c1c2ccc(CCc3ccccc3)cc2nc2n1CCCCC2 [Example 21.1]
0.1 to 0.3 µM

Request: CN(C)CC1CCc2nc3cc(C#Cc4cccc(F)c4)ccc3c(=O)n21 (stereo not drawn) [Example 3.4]
0.1 to 0.3 µM

Reference source for all entries: patent US10077243B2
